- Tested on: RS4; 11 with G101V mutation
- Measurement notes: In vitro anti-proliferation assay (ATPlite luminescence) in BCL-2-dependent ALL cell line RS4;11 with G101V mutation
- Format: cell-based
- Setup conditions: cellular anti-proliferative IC50, about 72 hours, medium with 10% FBS, ATPlite; read-out: RS411-G101V IC50
pIC50: −log10 of the molar value.
Below, each entry is listed alongside its reported pIC50.

>  <Molecule>
COc1cc(CN2CCN(C3CC4(CCN(c5ccc(C(=O)NS(=O)(=O)c6ccc(NCC7CCOCC7)c([N+](=O)[O-])c6)c(N6c7cc8cc[nH]c8nc7O[C@H]7COCC[C@@H]76)c5)CC4)C3)[C@@H](c3ccccc3OC(C)C)C2)cnc1N1CCOCC1 [Example 133]

>  <pIC50>
7.49

$$$$
>  <Molecule>
COc1cc(CN2CCN([C@H]3CC4(CCN(c5ccc(C(=O)NS(=O)(=O)c6ccc(NCC7CCC(C)(O)CC7)c([N+](=O)[O-])c6)c(N6c7cc8cc[nH]c8nc7O[C@H]7COCC[C@@H]76)c5)CC4)[C@@H]3C)[C@H](c3ccccc3C)C2)cnc1N1CCOCC1 (stereo partly shown) [Example 141]

>  <pIC50>
7.44

$$$$
>  <Molecule>
COc1cc(CN2CCN(C3CC4(CCN(c5ccc(C(=O)NS(=O)(=O)c6ccc(NCC7CCOCC7)c([N+](=O)[O-])c6)c(N6c7cc8cc[nH]c8nc7O[C@H]7COCC[C@@H]76)c5)CC4)C3)[C@@H](c3ccccc3OC(C)C)C2)cnc1N1CCOCC1 [Example 132]

>  <pIC50>
7.49

$$$$
>  <Molecule>
COc1ccc(CN2CCN(C3CC4(CCN(c5ccc(C(=O)NS(=O)(=O)c6ccc(NC[C@H]7CC[C@](C)(O)CC7)c([N+](=O)[O-])c6)c(N6c7cc8cc[nH]c8nc7O[C@H]7COCC[C@@H]76)c5)CC4)C3)[C@@H](c3ccccc3OC(C)C)C2)nc1OC [Example 105]

>  <pIC50>
7.71

$$$$
